protocol_text: Partition coefficient (logP)
Type: physicochemical
setup_conditions: octanol/water
quantity: logP
Give bare numbers.

response.value for `CCC(=C(c1ccc(O)cc1)c1ccc(O)cc1)c1ccccc1` (field: logP) = 4.4
